test system: HUH7 cells; test: Cell death by Annexin V and propidium iodide staining, HUH7 cells and MAN2A1-FER knockout counterpart; format: cell-based; conditions: Homo sapiens, Huh-7, HUH7 WT (MAN2A1-FER positive)
measured-endpoint: pIC50
Numbers only, as −log10 of the molar value.

{"columns": ["input-smiles", "pIC50"],
 "data": [
  ["C=CC(=O)Nc1cc2c(Nc3ccc(F)c(Cl)c3)ncnc2cc1OCCCN1CCOCC1", 7.83]
]}

Per the records, this molecule ( C[C@@H](Oc1cc(-c2cnn(C3CCNCC3)c2)cnc1N)c1c(Cl)ccc(F)c1Cl ) has pIC50 equal to 7.54
